Quick reference: growth of the listed items.
Tested on: MALME-3M melanoma
protocol text: NCI-60 one-dose screen, 48 h (100 = growth as untreated, 0 = no growth, -100 = all killed)
settings: 10 µM unless noted
About 83,000 compounds went through this panel and 20% of them were active in at least one assay; those are over-represented in the sample as a whole. Calls of active or inactive are those of the source. Rule for the calls: active = growth percent below 10; inactive = the rest.

| molecule | growth |
| --- | --- |
| COC(=O)c1cc(Cl)cc([N+](=O)[O-])c1O | 114% (inactive) |
| NC(N)=N/N=C\c1ccc(OCc2ccccc2)cc1 | 91.5% (inactive) |
| O=C(C=P(c1ccccc1)(c1ccccc1)c1ccccc1)CCl | -69.7% (active) |
| CCOCC(O)(c1ccc(Cl)cc1)c1ccc(Cl)cc1 | 103% (inactive) |
| CNCc1cccc2c1OCCOCCOCCC(C)S(=O)(=O)c1ccc(cc1)-c1cnc(N)c(n1)C(=O)N2 (configuration not stated) | 75.3% (inactive) |
| C/C(=N\NC(=S)N1CCCCC1)c1ccccn1 | 5.96% (active) |
| N#Cc1c(N)c(C(=O)c2ccc3c(c2)OCCO3)n2c1CCCC2 | -8.49% (active) |
| COc1cccc(NC(=O)c2c(-c3ccccc3)c(-c3ccccc3)n[nH]c2=O)c1 | 101% (inactive) |
| CC(=O)c1c(C)nc(-c2cc(C)cc(Cl)c2)nc1-c1cccc(Oc2ccccc2)c1 | 74.8% (inactive) |
| CCN(CC)CCCC(C)Nc1cnc(C(=O)Nc2ccc(Cl)c3cccnc23)cn1 (configuration not stated) | -71.8% (active) |
| CCCCNCC(O)c1cc2c(Cl)cc(Cl)cc2c2cc(C(F)(F)F)ccc12 (configuration not stated) | -60.8% (active) |
| COc1cccc2nc(Nc3cccc(NC(=O)c4ccc(N5CCN(C)CC5)c(C(F)(F)F)c4)c3)ccc12 | -10.5% (active) |

###

Tested on: UACC-62 melanoma
protocol text: NCI-60 one-dose screen, 48 h (100 = growth as untreated, 0 = no growth, -100 = all killed)
settings: 10 µM unless noted
About 83,000 compounds went through this panel and 20% of them were active in at least one assay; those are over-represented in the sample as a whole. The source made the active and inactive calls. Rule for the calls: active = growth percent below 10; inactive = the rest.
Quick reference: growth of the listed items.

| compound | target or test system | growth |
| --- | --- | --- |
| Cn1c(=O)c2c3c(oc2c2ccccc21)C(=O)c1ccccc1C3=O | UACC-62 melanoma | 77% (inactive) |
| NC(N)=N/N=C\c1ccc(OCc2ccccc2)cc1 | UACC-62 melanoma | 78.2% (inactive) |
| CN1CCN(Cc2ccc(NC(=O)c3cncc(C#Cc4ccc(N)nc4)c3)cc2C(F)(F)F)CC1 | UACC-62 melanoma | -5.85% (active) |
| COc1ccc(C2=NN(C=O)C(c3ccc(OS(=O)(=O)c4ccc(C)cc4)c(OC)c3)C2)cc1 (stereo not drawn) | UACC-62 melanoma | 50.1% (inactive) |
| OC(c1cc2c(Cl)cc(Cl)cc2c2cc(C(F)(F)F)ccc12)C1CCCCN1 (stereo not drawn) | UACC-62 melanoma | -72.4% (active) |
| C/C(=N\OC(=O)Nc1cccc(Cl)c1)c1ccccc1 | UACC-62 melanoma | 93.7% (inactive) |
| COc1ccc(NC(=O)C2c3ccccc3C(=O)N(CC(C)C)C2c2cccs2)cc1 (stereo not drawn) | UACC-62 melanoma | 89.5% (inactive) |
| COC1=CC(c2ccc[nH]2)=N/C1=C\c1[nH]c(C)c(C(=O)CCCCCCCCC(=O)O[C@H]2CC[C@H]3C4CCc5cc(O)ccc5C4CC[C@]23C)c1C (stereo partly drawn) | UACC-62 melanoma | -48.3% (active) |
| N#Cc1c(NN)n(C2OC(CO)C(O)C2O)c2ncnc(N)c12 (stereo not drawn) | UACC-62 melanoma | -39.3% (active) |
| CCCCN(CCCC)CCC(=O)c1ccc(OC)c2ccccc12 | UACC-62 melanoma | 93.5% (inactive) |
| CC(C)(C)CC(C)(C)NCc1cc(C(C)(C)C)cc(CNC(C)(C)CC(C)(C)C)c1O | UACC-62 melanoma | 82.9% (inactive) |
| CCN(CC)Cc1cc(Nc2ccnc3cc(Cl)ccc23)cc(-c2ccc(Cl)cc2)c1O | UACC-62 melanoma | 60.8% (inactive) |
| O=C(NO)c1ccc(NCc2csc3ccccc23)cc1 | UACC-62 melanoma | 57.8% (inactive) |
| Fc1ccc(-c2nnc(N3CCOCC3)c3ccccc23)cc1 | UACC-62 melanoma | 96.1% (inactive) |
| O=C1C2=C(C(=O)c3c(O)ccc(O)c31)N(c1ccc(N3CCOCC3)nc1)Cc1ccccc1O2 | UACC-62 melanoma | -66.7% (active) |
| CCCCCCCCCC1=NC(C)(C)CN1C(C)(C)CO | UACC-62 melanoma | 98.8% (inactive) |
| COc1cccc(/C=N/N=C(N)N)c1 | UACC-62 melanoma | 81.8% (inactive) |
| FC(F)(F)C1=NNC(c2ccc3ccccc3c2)=NN1 | UACC-62 melanoma | 101% (inactive) |

###

Test system: HS 578T breast
protocol text: NCI-60 one-dose screen, 48 h
settings: 10 µM
Protocol: Growth inhibition of the HS 578T human tumor cell line is measured as a screen for anti-cancer activity. Cells are grown in 96 well plates and exposed to the test compound for 48 hours. Compounds are tested at a single concentration, which is 10^-5 M for most compounds. The reported endpoint is percent growth (GI% or GIPRCNT), where numbers from 0 - 100% represent growth inhibition, and numbers from -100% - 0 represent cell death. For example, a value of 40 represents 60% growth inhibition. […]
About 83,000 compounds went through this panel and 20% of them were active in at least one assay; those are over-represented in the sample as a whole. Active and inactive are the calls of the source. Rule for the calls: active = growth percent below 10; inactive = the rest.
Labels: active, inactive

| compound | assigned class |
| --- | --- |
| CCCc1n(Cc2ccc3ccccc3c2)c2ccccc2[n+]1Cc1ccc2ccccc2c1 | active |
| C#CC[C@@H]1C[C@]2(C)[C@H]3CC=C4[C@H]5[C@@H](C)[C@H](C)CC[C@]5(C(=O)NCCCCCCCCN)CC[C@@]4(C)[C@]3(C)CC[C@H]2C(C)(C)[C@H]1OC(C)=O | inactive |
| OC(c1cc2c(Cl)cc(Cl)cc2c2cc(C(F)(F)F)ccc12)C1CCCCN1 (stereo unspecified) | active |
| CCCCN(CCCC)CCC(=O)c1ccc(OC)c2ccccc12 | inactive |
| C/C(=N\NC(=S)N1CCCCC1)c1ccccn1 | inactive |
| Cc1ccc(NC(=O)c2nc(S(C)(=O)=O)oc2-c2ccc(F)cc2)cc1Nc1ccc2ncn(C)c(=O)c2c1 | inactive |

###

Tested on: SR leukemia
protocol text: NCI-60 one-dose screen, 48 h (100 = growth as untreated, 0 = no growth, -100 = all killed)
settings: 10 µM unless noted
About 83,000 compounds went through this panel and 20% of them were active in at least one assay; those are over-represented in the sample as a whole.
Please mark MET if the recorded growth is equal to or greater than 20%, and NOT MET if it falls below.

| molecule | target or test system | assigned class |
| --- | --- | --- |
| Cc1ccc(/C=C/C(=N/N=C(N)N)c2ccccc2)cc1 | SR leukemia | NOT MET |
| CC(C)CC(NC(=O)OCC1c2ccccc2-c2ccccc21)C(=O)O (stereo not given) | SR leukemia | MET |
| O=[N+]([O-])c1cccc([I+]c2ccccc2)c1 | SR leukemia | NOT MET |
| Nc1nc(N)c2cc(Sc3ccc(Cl)cc3)ccc2n1 | SR leukemia | NOT MET |
| COc1ccc(-c2nc(-c3cc(OC)cc(OC)c3)[nH]c2-c2ccc(OC)cc2)cc1 | SR leukemia | MET |
| CCCCN(CCCC)CCCN=c1nc2c(c(N)n1-c1ccccc1)c(=S)n(-c1ccccc1)c(=S)n2-c1ccccc1 | SR leukemia | NOT MET |
| Cc1cc(C)c2c(n1)sc1c(Nc3ccc(Cl)cc3Cl)ncnc12 | SR leukemia | NOT MET |
| C/C(=N\NC(=S)N1CCCCC1)c1ccccn1 | SR leukemia | NOT MET |
| C=CCn1c(C)nc2cc(Nc3nc(N4CCOCC4)nc4nc[nH]c34)ccc21 | SR leukemia | MET |
| COc1cccc(/C=N/N=C(N)N)c1 | SR leukemia | MET |
| CCOC(=O)c1sc2nc(-c3cc4ccccc4o3)cc(-c3ccc(Cl)cc3)c2c1N | SR leukemia | MET |
| Cc1ccc(N2C3c4ccccc4N(S(=O)(=O)c4ccc(C)cc4)C2c2ccccc2N3S(=O)(=O)c2ccc(C)cc2)cc1 | SR leukemia | MET |
| Nc1nc2ccc([C@@H]3Nc4ccc5[nH]ncc5c4[C@H]4[C@H]5CCC(C5)[C@H]43)cc2s1 | SR leukemia | MET |
| COc1cc2nccc(Oc3ccc(NC(=O)C4(C(=O)Nc5ccc(F)cc5)CC4)cc3)c2cc1OC(=O)c1ccc(N)cc1 | SR leukemia | NOT MET |
| CCCc1cc2c(cc1CN(Cc1cc3c(cc1CCC)OCO3)C(=N)OCC)OCO2 | SR leukemia | MET |
| COC(=O)C(C)NC1=C(Cl)C(=O)C(NC(C)C(=O)OC)=C(Cl)C1=O (stereo not given) | SR leukemia | MET |
| O=C(Nc1ccc2[nH]c3ccccc3c2c1)c1ccccc1Cl | SR leukemia | NOT MET |
| CC(C)OC(=O)c1ccc([N+](=O)[O-])cc1 | SR leukemia | MET |
| FC(F)(F)c1ccc(/C=N/Nc2nnc3n2N=C(c2ccc(Cl)cc2)CS3)cc1 | SR leukemia | MET |
| COc1cc2c(cc1OC)C(=O)OC2 | SR leukemia | MET |
| COc1ccc(C2CC(c3cccc(Nc4ccnc5cc(Cl)ccc45)c3)=NN2c2ccccc2)cc1 (stereo not given) | SR leukemia | MET |
| CC(CN1CCN(C)CC1)CN1c2ccccc2Sc2ccc(C(F)(F)F)cc21 (stereo not given) | SR leukemia | NOT MET |
| Cc1ccc(-c2nc3ccccc3c(=O)n2/N=C/c2cccc3ccccc23)cc1 | SR leukemia | MET |
| COc1c(C(=O)/C=C/c2ccc(C)o2)c(O)cc2occc12 | SR leukemia | MET |
